- Tested on: Mus musculus
- protocol-notes: Effect on locomotor activity in sc dosed mouse assessed as spontaneous activity
- Assay type: functional
readout: ED50 (mg/kg)
Only the number, expressed in mg/kg, is required.

[Q] Report measured ED50; entry is Cl.Cl.Cl.Clc1cccc(-c2cncc(C3CC4CCC3N4)c2)c1 (racemic)
[A] 3.8

[Q] Look up and report measured ED50 for this entry: COc1cccc(-c2cncc(C3CC4CCC3N4)c2)c1.Cl.Cl (racemic)
[A] 2.9

[Q] Give me measured ED50, please, for this compound: Fc1ccc(-c2cncc(C3CC4CCC3N4)c2)cc1 (configuration not stated)
[A] 3

[Q] Consider the compound Cl.Cl.c1ccc(-c2cncc(C3CC4CCC3N4)c2)cc1 (racemic) . State its measured ED50.
[A] 0.5

[Q] Report ED50 for Clc1ccc(C2CC3CCC2N3)cn1 (racemic) [EPIBATIDINE]
[A] 0.001

[Q] Look up and report measured ED50 for this entry: Cl.Nc1cccc(-c2cncc(C3CC4CCC3N4)c2)c1 (racemic)
[A] 1.5

[Q] Give ED50 for the following compound: Cl.Cl.O=[N+]([O-])c1cccc(-c2cncc(C3CC4CCC3N4)c2)c1 (racemic)
[A] 2.5

* * *

Kindly state Activity for each of the entries shown.
- Test system: Mus musculus
- protocol-notes: […] in mouse assessed as inhibition of nicotin induced hypothermia at 10 mg/kg, sc
- Format: functional
- Parameters: scale not given: the % may be the effect or the level left
- stated-conditions: route subcutaneous
All answers are understood in %, so give the number only.

[Q] Return reported Activity. Input compound: Cl.Cl.Fc1cccc(-c2cncc(C3CC4CCC3N4)c2)c1 (racemic)
[A] 0

[Q] Name the recorded Activity of the item Clc1ccc(-c2cncc(C3CC4CCC3N4)c2)cc1 (stereo not given) in your answer.
[A] 2

[Q] Indicate its recorded Activity; the compound in question is Cl.Nc1ccc(-c2cncc(C3CC4CCC3N4)c2)cc1 (racemic)
[A] 0

[Q] Input Fc1ccc(-c2cncc(C3CC4CCC3N4)c2)cc1 (stereo not given) , output reported Activity.
[A] -1.6

[Q] Supply recorded Activity for COc1cccc(-c2cncc(C3CC4CCC3N4)c2)c1.Cl.Cl (racemic) here.
[A] 0

* * *

Please respond with reported Activity for every item in the list.
- Tested on: Mus musculus
- protocol-notes: Antinociceptive activity in acute pain mouse model at 10 mg/kg, sc by hot plate method
- Format: functional
- stated-conditions: route subcutaneous
Field note: include the unit after the figure.

[Q] Specify reported Activity for the molecule shown: COc1cccc(-c2cncc(C3CC4CCC3N4)c2)c1.Cl.Cl (racemic)
[A] 20%

[Q] Identify measured Activity associated with Cl.O=[N+]([O-])c1cccc(-c2cc(C3CC4CCC3N4)cnc2F)c1 (racemic)
[A] 20%

[Q] Identify measured Activity associated with Cl.Fc1ccc(-c2cc(C3CC4CCC3N4)cnc2F)cc1 (racemic)
[A] 15%

[Q] Check the records and state Activity for Cl.O=[N+]([O-])c1ccc(-c2cc(C3CC4CCC3N4)cnc2F)cc1 (racemic)
[A] 10%

[Q] Entry Fc1ccc(-c2cncc(C3CC4CCC3N4)c2)cc1 (stereo unspecified) needs its Activity filled in; supply it.
[A] 13%

[Q] Give the value of Activity reported for the following: Clc1ccc(-c2cncc(C3CC4CCC3N4)c2)cc1 (stereo unspecified)
[A] 11%

* * *

For each entry below, report its AD50 value.
- Tested on: Mus musculus
- protocol-notes: Inhibition of nicotine-induced antinociception in sc dosed acute pain mouse model by tail flick method
- Type: functional
Report as a plain number; the unit µg/kg is understood.

[Q] Note AD50 for the compound shown: Cl.Fc1ncc(C2CC3CCC2N3)cc1-c1cccc(Cl)c1 (racemic)
[A] 12

[Q] Write down AD50 measured for item Cl.Fc1ncc(C2CC3CCC2N3)cc1-c1ccc(Cl)cc1 (racemic)
[A] 0.3

[Q] Query AD50 for Fc1ccc(-c2cncc(C3CC4CCC3N4)c2)cc1 (configuration not stated)
[A] 13

[Q] Note down AD50 recorded for Cl.Fc1ncc(C2CC3CCC2N3)cc1-c1ccccc1 (racemic)
[A] 500

[Q] Give recorded AD50. Cl.Cl.Cl.Clc1cccc(-c2cncc(C3CC4CCC3N4)c2)c1 (racemic)
[A] 0.01

[Q] Specify AD50 for Cl.O=[N+]([O-])c1ccc(-c2cc(C3CC4CCC3N4)cnc2F)cc1 (racemic) and stop.
[A] 3

[Q] Return reported AD50. Input compound: Cl.Cl.c1ccc(-c2cncc(C3CC4CCC3N4)c2)cc1 (racemic)
[A] 300

* * *

- Test system: Mus musculus
- protocol-notes: Inhibition of nicotine-induced antinociception in sc dosed acute pain mouse model by hot plate method
- Format: functional
readout: log10 AD50 (log10 of the value in mg/kg)
On a log10 scale: recorded AD50, unit mg/kg.

[Q] Dear colleague, please send me the reported log10 AD50 for Cl.Fc1ncc(C2CC3CCC2N3)cc1-c1ccc(Cl)cc1 (racemic) when you can.
[A] -0.59

[Q] State its log10 AD50: Cl.O=[N+]([O-])c1ccc(-c2cc(C3CC4CCC3N4)cnc2F)cc1 (racemic)
[A] -0.92

[Q] Find the measured log10 AD50 of Cl.Cl.Fc1cccc(-c2cncc(C3CC4CCC3N4)c2)c1 (racemic) and report it.
[A] 0.48

[Q] Output measured log10 AD50 for this item: Cl.Nc1cccc(-c2cc(C3CC4CCC3N4)cnc2F)c1 (racemic)
[A] -0.09

[Q] Annotate the compound Cl.Fc1ncc(C2CC3CCC2N3)cc1-c1ccccc1 (racemic) with its measured log10 AD50.
[A] 0.08

[Q] Provide log10 AD50 value for the following compound: Cl.Fc1ccc(-c2cc(C3CC4CCC3N4)cnc2F)cc1 (racemic)
[A] -0.64

[Q] Complete the entry with log10 AD50 for c1cnc2cc3c(cc2n1)[C@@H]1CNC[C@H]3C1
[A] -0.33

[Q] Return the recorded log10 AD50 value; entry: Cl.Fc1ncc(C2CC3CCC2N3)cc1-c1cccc(Cl)c1 (racemic)
[A] -0.35

[Q] Recall and state the measured log10 AD50 for COc1cccc(-c2cc(C3CC4CCC3N4)cnc2F)c1.Cl (racemic) .
[A] 0.30

[Q] Output log10 AD50 of Cl.O=[N+]([O-])c1cccc(-c2cc(C3CC4CCC3N4)cnc2F)c1 (racemic)
[A] -0.89

[Q] Return value of log10 AD50 for input Cl.Nc1ccc(-c2cc(C3CC4CCC3N4)cnc2F)cc1 (racemic) , no commentary.
[A] 0.26

* * *

- Tested on: Mus musculus
- protocol-notes: Effect on locomotor activity in sc dosed mouse assessed as spontaneous activity
- Type: functional
Provide the reported log10 ED50 of each item.
Response schema: value (number) is log10 of ED50 in units of mg/kg.

[Q] Please respond with reported log10 ED50 (system Mus musculus) for CN1CCC[C@@H]1c1cccnc1 .
[A] -0.30

[Q] Report value only: log10 ED50, Mus musculus, Cl.Cl.Fc1cccc(-c2cncc(C3CC4CCC3N4)c2)c1 (racemic)
[A] 0.70

[Q] Fill in: log10 ED50 on Mus musculus, entry Clc1ccc(-c2cncc(C3CC4CCC3N4)c2)cc1 (stereo not given)
[A] 1.02

[Q] Give log10 ED50; test system Mus musculus; compound c1cnc2cc3c(cc2n1)[C@@H]1CNC[C@H]3C1
[A] 0.32

[Q] State, for Mus musculus, measured log10 ED50 of the compound listed here: Cl.Cl.O=[N+]([O-])c1ccc(-c2cncc(C3CC4CCC3N4)c2)cc1 (racemic)
[A] -0.18

* * *

- study-target: Neuronal acetylcholine receptor; alpha4/beta2 (Rattus norvegicus, UniProt P09483+P12390)
- Sequence (P09483 whole entry): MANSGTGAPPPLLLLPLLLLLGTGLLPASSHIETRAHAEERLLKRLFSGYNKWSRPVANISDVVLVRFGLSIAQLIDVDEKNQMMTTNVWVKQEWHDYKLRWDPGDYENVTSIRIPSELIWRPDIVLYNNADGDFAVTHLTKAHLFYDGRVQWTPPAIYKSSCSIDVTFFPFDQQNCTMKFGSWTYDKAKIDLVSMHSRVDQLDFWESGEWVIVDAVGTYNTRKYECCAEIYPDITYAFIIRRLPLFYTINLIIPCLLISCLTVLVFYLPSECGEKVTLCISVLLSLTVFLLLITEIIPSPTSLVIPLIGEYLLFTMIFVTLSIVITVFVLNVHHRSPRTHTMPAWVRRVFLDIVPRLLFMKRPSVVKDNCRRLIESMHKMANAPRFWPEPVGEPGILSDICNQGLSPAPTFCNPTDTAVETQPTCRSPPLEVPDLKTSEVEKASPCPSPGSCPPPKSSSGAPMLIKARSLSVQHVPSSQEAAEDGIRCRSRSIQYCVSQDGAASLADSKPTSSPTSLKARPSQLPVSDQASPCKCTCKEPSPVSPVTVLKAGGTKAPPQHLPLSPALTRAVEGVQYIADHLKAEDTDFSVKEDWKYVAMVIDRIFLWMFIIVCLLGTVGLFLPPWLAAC
- Sequence (P12390 whole entry): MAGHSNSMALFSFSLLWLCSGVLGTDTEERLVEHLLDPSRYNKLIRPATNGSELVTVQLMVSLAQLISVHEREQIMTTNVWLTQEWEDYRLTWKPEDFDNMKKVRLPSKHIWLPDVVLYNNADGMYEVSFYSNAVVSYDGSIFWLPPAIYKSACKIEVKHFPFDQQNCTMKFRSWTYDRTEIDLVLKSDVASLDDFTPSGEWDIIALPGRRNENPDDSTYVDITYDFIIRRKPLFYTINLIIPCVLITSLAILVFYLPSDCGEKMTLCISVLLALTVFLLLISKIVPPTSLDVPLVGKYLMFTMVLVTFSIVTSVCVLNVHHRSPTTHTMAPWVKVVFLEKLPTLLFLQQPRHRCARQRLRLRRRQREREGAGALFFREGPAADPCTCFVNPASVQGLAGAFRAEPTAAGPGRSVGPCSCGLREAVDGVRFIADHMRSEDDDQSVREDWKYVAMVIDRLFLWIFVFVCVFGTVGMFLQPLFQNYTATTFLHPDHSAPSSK
- protocol-notes: Displacement of [3H]epibatidine from alpha-4-beta-2 nAChR in rat cerebral cortex
pKi: −log10 of the molar value.
Y means recorded pKi is 10 or above; N means it is below 10.

[Q] Has Cl.Cl.O=[N+]([O-])c1ccc(-c2cncc(C3CC4CCC3N4)c2)cc1 (racemic) a recorded pKi greater than or equal to 10?
[A] N

[Q] Record Clc1ccc(-c2cncc(C3CC4CCC3N4)c2)cc1 (stereo unspecified) ; criterion: pKi no lower than 10. Met?
[A] N

[Q] State whether the measured pKi reaches 10, counting equality as reaching it, for Cl.Nc1cccc(-c2cncc(C3CC4CCC3N4)c2)c1 (racemic)
[A] N

[Q] For this molecule, is measured pKi 10 or higher? Cl.Nc1ccc(-c2cncc(C3CC4CCC3N4)c2)cc1 (racemic)
[A] N

[Q] State whether the measured pKi reaches 10, counting equality as reaching it, for Cl.Fc1ncc(C2CC3CCC2N3)cc1-c1ccc(Cl)cc1 (racemic)
[A] Y

[Q] // inclusive: pKi at least 10? input: Cl.Cl.Fc1cccc(-c2cncc(C3CC4CCC3N4)c2)c1 (racemic)
[A] N

[Q] Does Cl.Cl.c1ccc(-c2cncc(C3CC4CCC3N4)c2)cc1 (racemic) have a reported pKi of at least 10?
[A] N

[Q] Is the recorded value of pKi equal to or greater than 10 for this molecule? Cl.O=[N+]([O-])c1ccc(-c2cc(C3CC4CCC3N4)cnc2F)cc1 (racemic)
[A] Y

[Q] Is pKi at least 10? Consider Cl.Fc1ccc(-c2cc(C3CC4CCC3N4)cnc2F)cc1 (racemic)
[A] Y
